System: Candida albicans
Assay: Antifungal activity against fluconazole-resistant Candida albicans 28A after 48 hrs by broth microdilution method
Type: functional
METRIC_NAME: MIC80

MOLECULE	METRIC_NAME	OBSERVED_MEASUREMENT
Oc1cc(O)c(-c2cc(-c3ccccc3)n[nH]2)c(O)c1	MIC80	> 128 µg/mL
COc1cc(O)c(-c2cc(-c3ccccc3)[nH]n2)c(OC)c1OC	MIC80	64 µg/mL
OCCn1ncc(-c2ccc(O)cc2)c1-c1ccc(O)cc1O	MIC80	> 128 µg/mL

Each molecule below has a recorded value; state its MIC80.
1. COc1cc(O)c(C2=NCCNC(c3ccccc3)=C2)c(OC)c1
2. COc1cc(O)c(-c2cc(-c3ccccc3)n[nH]2)c(OC)c1
3. COc1ccc(-c2cc(-c3ccccc3)nn2CCO)c(O)c1OC
4. COc1ccc(-c2cc(-c3c(O)cc(OC)cc3OC)[nH]n2)cc1

["128 µg/mL", "32 µg/mL", "> 128 µg/mL", "> 128 µg/mL"]

Please give MIC80 for each item listed below.
1. COc1cc(O)c(-c2cc(-c3ccccc3)n(CCO)n2)c(OC)c1
2. Oc1ccc(-c2cn[nH]c2-c2ccc(O)cc2O)cc1
3. COc1ccc(-c2cnn(CCO)c2-c2ccc(O)cc2O)cc1
4. COc1ccc(-c2cn(-c3ccccc3)nc2-c2c(O)cc(OC)cc2OC)cc1

1. > 128 µg/mL
2. > 128 µg/mL
3. > 128 µg/mL
4. > 128 µg/mL

Look up MIC80: CCn1ncc(-c2ccc(O)cc2)c1-c1ccc(O)c(C2OC(CO)C(O)C(O)C2O)c1O (configuration not stated)
> 128 µg/mL

* * *

Test system: Candida albicans
Experiment: Synergistic antifungal activity against fluconazole-resistant Candida albicans 28A after 48 hrs in presence of fluconazole by broth microdilution checkerboard method
Type: functional
Record form. Attribute: MIC80. Fill in for each entry.

MOLECULE	MIC80
COc1ccc(-c2cnn(CCO)c2-c2ccc(O)cc2O)cc1	> 128 mg/L

For each of the molecules below, state MIC80.
1. COc1cc(O)c(-c2cc(-c3ccccc3)n(CCO)n2)c(OC)c1
2. COc1ccc(-c2cc(-c3c(O)cc(OC)cc3OC)[nH]n2)cc1

1. 32 mg/L
2. > 128 mg/L

* * *

Test system: Candida albicans
Assay: Synergistic antifungal activity against fluconazole-resistant Candida albicans 28A after 48 hrs in presence of fluconazole by broth microdilution checkerboard method
Format: functional
What MIC80 was measured for each of the following?

// below: answered molecules
SMILES_REPR	METRIC_NAME	OBSERVED_MEASUREMENT
COc1ccc(-c2cc(-c3ccccc3)nn2CCO)c(O)c1OC	MIC80	> 128 µg/mL
Oc1ccccc1C1=NCCNC(c2ccccc2)=C1	MIC80	> 128 µg/mL
COc1ccc(-c2cn(-c3ccccc3)nc2-c2c(O)cc(OC)cc2OC)cc1	MIC80	> 128 µg/mL
OCCn1cc(-c2ccc(O)cc2)c(-c2ccc(O)cc2O)n1	MIC80	> 128 µg/mL
Oc1ccccc1-c1cc(-c2ccccc2)[nH]n1	MIC80	16 µg/mL

Moving on to another molecule below.
Quick one: MIC80 of COc1cc(O)c(C2=NCCNC(c3ccccc3)=C2)c(OC)c1 ?
32 µg/mL

* * *

Hi there, I'd appreciate the recorded MIC80 for every entry that follows.
System: Candida albicans
Test: Antifungal activity against CDR1 and CDR2 efflux pump deficient Candida albicans DSY654 after 48 hrs by broth microdilution method
Assay type: functional
Settings: DSY654, 48 h

Here's what some known entries look like.
SMILES_REPR	OBSERVED_MEASUREMENT
Oc1ccc(-c2cnn(-c3ccccc3)c2-c2ccc(O)cc2O)cc1	> 128 µg/mL
COc1ccc(-c2cc(-c3ccccc3)nn2CCO)c(O)c1OC	> 128 µg/mL
COc1ccc(-c2c[nH]nc2-c2ccc(O)cc2O)cc1	> 128 µg/mL
OCCn1nc(-c2ccccc2)cc1-c1ccccc1O	8 µg/mL
COc1ccc(-c2cn[nH]c2-c2c(O)cc(OC)cc2OC)cc1	> 128 µg/mL

Consider the molecule COc1ccc(-c2cc(-c3c(O)cc(OC)cc3OC)[nH]n2)cc1 and give its measured MIC80.
> 128 µg/mL

* * *

Test system: Candida albicans
Experiment: Synergistic antifungal activity against fluconazole-resistant Candida albicans 28A after 48 hrs in presence of fluconazole by broth microdilution checkerboard method
Type: functional
METRIC_NAME: MIC80

MOLECULE	MIC80
OCCn1ncc(-c2ccc(O)cc2)c1-c1ccc(O)c(C2OC(CO)C(O)C(O)C2O)c1O (centres undefined)	> 128 µg/mL
Oc1ccccc1-c1cc(-c2ccccc2)nn1-c1ccccc1	128 µg/mL
OCCn1nc(-c2ccccc2)cc1-c1ccccc1O	> 128 µg/mL
OCCn1cc(-c2ccc(O)cc2)c(-c2ccc(O)c(C3OC(CO)C(O)C(O)C3O)c2O)n1 (centres undefined)	> 128 µg/mL
COc1ccc(-c2cnn(-c3ccc(OC)cc3)c2-c2ccc(O)cc2O)cc1	> 128 µg/mL

State the recorded MIC80 for every item in the following list.
1. COc1ccc(C2=CC(c3c(O)cc(OC)cc3OC)=NCCN2)cc1
2. COc1ccc(C2=NCCNC(c3ccccc3)=C2)c(O)c1OC
3. Oc1ccc(-c2cc(-c3ccccc3)n[nH]2)c(O)c1O
4. CCn1cc(-c2ccc(O)cc2)c(-c2ccc(O)c(C3OC(CO)C(O)C(O)C3O)c2O)n1 (centres undefined)
5. CCn1ncc(-c2ccc(OC)cc2)c1-c1ccc(O)cc1O
6. COc1ccc(-c2cc(-c3ccccc3)[nH]n2)c(O)c1OC

["> 128 µg/mL", "> 128 µg/mL", "> 128 µg/mL", "> 128 µg/mL", "32 µg/mL", "> 128 µg/mL"]

* * *

System: Candida albicans
Experiment: Synergistic antifungal activity against fluconazole-resistant Candida albicans 28A after 48 hrs in presence of fluconazole by broth microdilution checkerboard method
Type: functional
METRIC_NAME: MIC80

COMPOUND	MIC80
CCn1cc(-c2ccc(OC)cc2)c(-c2ccc(O)cc2O)n1	> 128 µg/mL

Hi, could you look up MIC80 for each item in my list?
1. COc1cc(O)c(-c2cc(-c3ccccc3)[nH]n2)c(OC)c1OC
2. Oc1ccc(-c2cnn(-c3ccccc3)c2-c2ccc(O)cc2O)cc1
3. COc1cc(O)c(-c2cc(-c3ccccc3)nn2-c2ccccc2)c(OC)c1OC
4. Oc1ccc(-c2cn[nH]c2-c2ccc(O)cc2O)cc1
5. Oc1cc(O)c(-c2cc(-c3ccccc3)n[nH]2)c(O)c1

1: 16 µg/mL; 2: > 128 µg/mL; 3: > 128 µg/mL; 4: > 128 µg/mL; 5: 8 µg/mL

# map each compound to its MIC80
1. COc1ccc(-n2nc(-c3ccccc3)cc2-c2ccc(OC)c(OC)c2O)cc1
2. CCn1ncc(-c2ccc(O)cc2)c1-c1ccc(O)c(C2OC(CO)C(O)C(O)C2O)c1O (stereo not drawn)

["> 128 µg/mL", "> 128 µg/mL"]

Origin of measurements: ChEMBL document CHEMBL4219194
